Reported average neutralization titer values for a set of binders
# experimental-target: hemagglutinin (HA) of influenza virus H5N1 A/Vietnam/1194/04 (influenza A virus)
# assay-notes: cell-based or functional assay

- binder: "MD2303 (bispecific antibody) EVQLVESGGGLVQPGGSLRLSCAVSISIFDIYAMDWYRQAPGKQRDLVATSFRDGSTNYADSVKGRFTISRDNAKNTLYLQMNSLKPEDTAVYLCHVSLYRDPLGVAGGMGVYWGKGALVTVSSGGGGSGGGGSEVQLVESGGGLVQAGGSLKLSCAASGRTYAMGWFRQAPGKEREFVAHINALGTRTYYSDSVKGRFTISRDNAKNTEYLEMNNLKPEDTAVYYCTAQGQWRAAPVAVAAEYEFWGQGTQVTVSSGGGGSGGGGSEVQLVESGGGLVQPGGSLRLSCAATGFTLENKAIGWFRQTPGSEREGVLCISKSGSWTYYTDSMRGRFTISRDNAENTVYLQMDSLKPEDTAVYYCATTTAGGGLCWDGTTFSRLASSWGQGTQVTVSS"
  average neutralization titer, nM: 9.1
- binder: "MD2309 (bispecific antibody) EVQLVESGGGLVQAGDSLRISCAASGRTLSIYSMGWFRQAPGKEREFVATIGWNSGRTFYPDSLKGRFTISRDNARNTLYLQMNNLRPEDTAVYYCAAAKGPLRLSSQADYWGQGTQVTVSSGGGGSGGGGSEVQLVESGGGLVQAGDSLRLSCAASGPTFGMSAMGWFRQAPGKEREFVAAISGLGNPNYSDDVKGRFTISRENGRNTVYLQMNSLKPEDTAVYYCAQRKVYHVQGGDRPQAYDYWGQGTQVTVSSGGGGSGGGGSEVQLVESGGGLVQPGGSLRLSCAATGFTLENKAIGWFRQTPGSEREGVLCISKSGSWTYYTDSMRGRFTISRDNAENTVYLQMDSLKPEDTAVYYCATTTAGGGLCWDGTTFSRLASSWGQGTQVTVSS"
  average neutralization titer, nM: 12.8
- binder: "MD2314 (bispecific antibody) EVQLVESGGGLVQAGDSLRLSCAASGPTFGMSAMGWFRQAPGKEREFVAAISGLGNPNYSDDVKGRFTISRENGRNTVYLQMNSLKPEDTAVYYCAQRKVYHVQGGDRPQAYDYWGQGTQVTVSSGGGGSGGGGSEVQLVESGGGLVQAGDSLRLSCAASGPTFGMSAMGWFRQAPGKEREFVAAISGLGNPNYSDDVKGRFTISRENGRNTVYLQMNSLKPEDTAVYYCAQRKVYHVQGGDRPQAYDYWGQGTQVTVSSGGGGSGGGGSEVQLVESGGGLVQPGGSLRLSCAATGFTLENKAIGWFRQTPGSEREGVLCISKSGSWTYYTDSMRGRFTISRDNAENTVYLQMDSLKPEDTAVYYCATTTAGGGLCWDGTTFSRLASSWGQGTQVTVSS"
  average neutralization titer, nM: 6.5

Attribution: patent US20190359693A1
